test system: SR leukemia; assay: NCI-60 one-dose screen, 48 h; settings: 10 µM unless noted
The panel holds about 83,000 compounds, 20% with a hit somewhere; the sample as a whole holds those more often. Activity calls are given as the source filed them. Rule for the calls: active = growth percent below 10; inactive = the rest.
API: response.call in Y = active, N = inactive

The examples below pair each entry with its known result.
IN: // outcome(item) with item = O=C(CCCCCCCC(=O)N1CCCCC1)N1CCCCC1
OUT: N

IN: // outcome(item) with item = COc1ccc(OC)c(Nc2nnc(-c3cc(OC)c(OC)c(OC)c3)o2)c1
OUT: N

IN: // outcome(item) with item = COC(=O)/C(CCC=C(C)C)=C1\[C@@H](OC(C)=O)C[C@@]2(C)[C@H]1C/C(=N/O)[C@H]1[C@@]3(C)CC/C(=N\O)[C@@H](C)[C@@H]3CC[C@@]12C
OUT: N

IN: // outcome(item) with item = C=CC(CC(c1ccccc1)(c1ccccc1)c1ccccc1)N(CC)CC (stereo unspecified)
OUT: Y

IN: // outcome(item) with item = O=S(=O)(N=C1C(Cl)=C(Cl)C(=NS(=O)(=O)c2ccccc2)C(Cl)=C1Cl)c1ccccc1
OUT: N

Continuing:
IN: // outcome(item) with item = c1ccc(Nc2nc3c(s2)CCc2c[nH]cc2-3)nc1
OUT: N

IN: // outcome(item) with item = CNC(=O)NCC1OC(n2cnc3c(NC(=O)Nc4ccccc4)ncnc32)C2OC(=O)CC12 (stereo unspecified)
OUT: N

IN: // outcome(item) with item = Cc1c2cnccc2c(C)c2c1c1cc(CO)ccc1n2C
OUT: Y

IN: // outcome(item) with item = O=S(=O)(Nc1cc(Sc2nc3ccccc3s2)c(O)c2ccccc12)c1ccc2ccccc2c1
OUT: N

IN: // outcome(item) with item = CN(C)Cc1ccc(NC(=O)c2cncc(C#Cc3cnc(N)c4ncccc34)c2)cc1C(F)(F)F
OUT: Y
